Tested on: wheat germ agglutinin (Triticum aestivum), Alexa647-labelled
Assay: Alexa647-WGA lectin binding to printed small molecules – biochemical, small-molecule microarray, 635/667 nm fluorescence, artefact control for SMM control-protein annotation, profiling panel (AID 1140);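 note: score merges 667 nm feature emission with signal to noise over triplicate slides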
Conditions: WGA-A647 binding, 635 nm fluorescence, higher = more signal
Measured Property: composite z-score

Check out these entries, answers already filled in.
[
  {
    "Compound": "COC(=O)[C@@]1(Cc2ccc(OC)cc2)[C@H]2c3cc(C(=O)N(C)C)n(CCF)c3C[C@H]2CN1C(=O)c1ccccc1",
    "Result Value": 1.32
  },
  {
    "Compound": "C=C(COC)/C(=C/C[C@@H](OC(=O)c1ccncc1)c1cccc(OCCO)c1)c1cc(C(=O)OC)ccc1OC",
    "Result Value": 0.181
  },
  {
    "Compound": "COCCOC(=O)N1C(=O)[C@@]2(c3cc(C#CCC(C(=O)OC)C(=O)OC)ccc31)[C@H](C(=O)N1CCCCCCC1)[C@H]1C(=O)O[C@H](c3ccccc3)[C@H](c3ccccc3)N1[C@@H]2c1ccc(O)cc1",
    "Result Value": 1.13
  },
  {
    "Compound": "COc1ccccc1CN1C(=O)c2ccccc2[C@@H](C(=O)NCC(C)C)[C@@H]1c1ccc(CO)cc1",
    "Result Value": 0.342
  },
  {
    "Compound": "COCCOC(=O)N1C(=O)[C@@]2(c3ccccc31)[C@H](c1ccccc1OCCO)N1[C@H](c3ccccc3)[C@H](c3ccccc3)OC(=O)[C@H]1[C@@H]2C(=O)N1CCc2cc(OC)c(OC)cc2C1",
    "Result Value": 0.435
  }
]

The compound identified as CN1C(=O)C2C=CC(C(O)C3CCCCC3)N(N(c3ccccc3)c3ccccc3)C2C1=O (configuration not stated) registered its composite z-score at 0.517

Record summary for "CC(C)(C)OC(=O)CC[C@@]1(C(=O)N2CCCCC2)N=C(c2ccc(OCCCO)cc2)O[C@@H]1c1ccccc1CN=[N+]=[N-]" : reported composite z-score = 1.35
